# target_under_test: corticotropin releasing factor 1 receptor
# assay_info: cell-based or functional assay
Ends that are not written are not given here.
Given measured CRF1R EC50, output Satisfied if it is greater than or equal to 900 nM and Not satisfied if not.

{"columns": ["binder", "classification"],
 "data": [
  ["ZGPPISIDLPYQLLRKVIEIEKQEKEKQQAANNARLLARI (C-terminal amide) [SEQ ID NO 286]", "Satisfied"],
  ["ZGPPISIDLSLELLRKMIEIEKQEKEKQQAANNRLLLDTI (C-terminal amide) [SEQ ID NO 355]", "Not satisfied"],
  ["ZGPPISIDLPYQLLRKMIEIEKQEKEKQQAANNARLLAR (C-terminal amide) [SEQ ID NO 288]", "Not satisfied"],
  ["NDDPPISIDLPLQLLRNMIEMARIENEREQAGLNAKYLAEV-NH2 [SEQ ID NO 270]", "Satisfied"],
  ["ZGPPISIDLPLELLRKMIEIEKQEKEKQQAANNALLLATI (C-terminal amide) [SEQ ID NO 234]", "Not satisfied"],
  ["ZGPPISIDVPYWLLRKVIEIEKQEKEKQQAANNARLLDTI (C-terminal amide) [SEQ ID NO 372]", "Satisfied"],
  ["ZGPPISIDLPLQLLRKVIEIEKQEKEKQQATTNARILARV (C-terminal amide) [SEQ ID NO 320]", "Not satisfied"],
  ["ZGPPISIDLPYYLLRKMIEIEKQEKEKQQAANNALLLDTI (C-terminal amide) [SEQ ID NO 226]", "Not satisfied"],
  ["ZGPPISIDLPYHLLRKVIEIEKQEKEKQQAANNALLLDTI (C-terminal amide) [SEQ ID NO 312]", "Not satisfied"],
  ["Ac-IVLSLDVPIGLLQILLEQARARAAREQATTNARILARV-NH2 [SEQ ID NO 354]", "Satisfied"],
  ["IVLSLDVPIGLLQILLEQARARAAREQATTNARILARVM-NH2 [SEQ ID NO 368]", "Satisfied"],
  ["ZGPPISIDVPIGLLRKMIEIEKQEKEKQQAANNRLLLDTI (C-terminal amide) [SEQ ID NO 254]", "Not satisfied"]
]}

Source of measurements: patent US20030148956A1
